Hey, just so you know, these numbers are from patent US20220177587A1.

SYSTEM: huCTLA4 (Homo sapiens, UniProt P16410)
Sequence (P16410 36-223): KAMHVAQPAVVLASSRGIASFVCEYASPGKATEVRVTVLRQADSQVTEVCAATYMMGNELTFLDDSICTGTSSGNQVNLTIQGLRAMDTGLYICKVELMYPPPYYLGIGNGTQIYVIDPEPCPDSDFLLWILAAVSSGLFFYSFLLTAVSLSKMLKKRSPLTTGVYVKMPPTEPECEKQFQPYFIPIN
METHOD_DESCRIPTION: Flow binding to CHO cells stably expressing CTLA4
Set-up: huCTLA4 and huPD-L1, full-length mammalian surface expression constructs were generated; expressed in transfected cells; host or cells: CHO cells, lentiviral transduction, sorted to >98% purity
TEST_CONDITIONS: Table E19; MFI at 33.3 nM relative to WT CD80 ECD-Fc (Abcam)
ASSAY_ENDPOINT: CTLA4 Fold change to WT CD80 (fold)

1) E35D/M47L/V68M (protein) VIHVTKEVKEVATLSCGHNVSVEELAQTRIYWQKDKKMVLTMMSGDLNIWPEYKNRTIFDITNNLSIMILALRPSDEGTYECVVLKYEKDAFKREHLAEVTLSVKAD; 0.7
2) E35D/V68M/L85Q (protein) VIHVTKEVKEVATLSCGHNVSVEELAQTRIYWQKDKKMVLTMMSGDMNIWPEYKNRTIFDITNNLSIMILALRPSDEGTYECVVQKYEKDAFKREHLAEVTLSVKAD; 1.1
3) D46V/V68M (protein) VIHVTKEVKEVATLSCGHNVSVEELAQTRIYWQKEKKMVLTMMSGVMNIWPEYKNRTIFDITNNLSIMILALRPSDEGTYECVVLKYEKDAFKREHLAEVTLSVKAD; 0.1
